Taken from patent US10202372B2.

target: PI3Kδ (Homo sapiens, UniProt O00329); test: PI3Kδ kinase activity, Adapta TR-FRET ADP detection; conditions: purified p110δ/p85α heterodimer; read-out: Kinases IC50 PI3Kδ
Sequence (O00329 whole entry): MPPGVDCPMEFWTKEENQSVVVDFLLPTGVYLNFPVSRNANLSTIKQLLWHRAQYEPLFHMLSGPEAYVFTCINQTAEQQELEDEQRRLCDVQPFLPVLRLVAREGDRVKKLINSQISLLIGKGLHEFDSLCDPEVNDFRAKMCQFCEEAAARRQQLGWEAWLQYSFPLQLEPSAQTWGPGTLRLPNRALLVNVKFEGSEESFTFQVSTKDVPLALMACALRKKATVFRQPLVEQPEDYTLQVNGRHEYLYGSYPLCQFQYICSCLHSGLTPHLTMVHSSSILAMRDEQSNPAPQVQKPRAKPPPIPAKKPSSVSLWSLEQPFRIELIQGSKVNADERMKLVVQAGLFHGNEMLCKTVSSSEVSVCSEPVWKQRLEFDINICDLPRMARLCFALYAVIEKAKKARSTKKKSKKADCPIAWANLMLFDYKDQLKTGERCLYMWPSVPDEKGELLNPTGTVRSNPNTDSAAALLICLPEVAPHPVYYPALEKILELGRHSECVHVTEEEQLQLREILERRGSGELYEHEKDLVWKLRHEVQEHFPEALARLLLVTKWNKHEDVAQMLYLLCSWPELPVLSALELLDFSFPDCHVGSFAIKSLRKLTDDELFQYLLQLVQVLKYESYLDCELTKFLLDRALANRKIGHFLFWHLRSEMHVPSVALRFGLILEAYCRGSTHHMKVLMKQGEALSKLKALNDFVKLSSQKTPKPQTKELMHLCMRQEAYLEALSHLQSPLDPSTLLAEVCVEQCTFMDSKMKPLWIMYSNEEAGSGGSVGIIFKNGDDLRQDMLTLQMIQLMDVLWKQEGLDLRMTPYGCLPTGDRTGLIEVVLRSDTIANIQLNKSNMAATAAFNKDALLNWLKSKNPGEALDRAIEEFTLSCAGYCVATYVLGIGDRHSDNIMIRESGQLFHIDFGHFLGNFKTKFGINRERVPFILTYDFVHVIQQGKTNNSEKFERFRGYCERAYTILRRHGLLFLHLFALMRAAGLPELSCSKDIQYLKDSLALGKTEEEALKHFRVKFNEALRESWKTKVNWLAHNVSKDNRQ
Sequence (P27986 whole entry partner): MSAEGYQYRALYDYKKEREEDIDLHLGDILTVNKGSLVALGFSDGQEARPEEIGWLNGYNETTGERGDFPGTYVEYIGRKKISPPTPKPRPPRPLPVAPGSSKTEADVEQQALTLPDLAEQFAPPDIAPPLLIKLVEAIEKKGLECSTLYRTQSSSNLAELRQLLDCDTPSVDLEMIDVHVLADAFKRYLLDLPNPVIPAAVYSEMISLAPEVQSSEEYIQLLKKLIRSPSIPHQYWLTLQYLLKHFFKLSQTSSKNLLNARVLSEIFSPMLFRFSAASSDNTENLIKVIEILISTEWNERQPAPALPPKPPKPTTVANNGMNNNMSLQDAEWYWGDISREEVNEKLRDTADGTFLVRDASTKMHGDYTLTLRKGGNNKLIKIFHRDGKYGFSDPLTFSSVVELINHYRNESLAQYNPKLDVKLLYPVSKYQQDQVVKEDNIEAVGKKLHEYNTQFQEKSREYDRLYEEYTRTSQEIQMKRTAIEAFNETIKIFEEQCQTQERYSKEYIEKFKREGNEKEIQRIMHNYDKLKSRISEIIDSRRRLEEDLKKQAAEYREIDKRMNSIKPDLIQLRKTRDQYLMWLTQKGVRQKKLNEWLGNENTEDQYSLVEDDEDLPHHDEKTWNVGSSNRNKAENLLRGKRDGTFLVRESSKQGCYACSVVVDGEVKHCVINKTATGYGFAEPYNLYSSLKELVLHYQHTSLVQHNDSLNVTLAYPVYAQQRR
pIC50: −log10 of the molar value. Where a name gives a salt, the structure may show the parent alone.
readout: pIC50

>>> print(df.to_string())
                                   compound  reported_result
0  Oc1cccc(-c2nc(N3CCOCC3)c3ncc(CN4CCOCC4)cc3n2)c1 [Compound 29, hydrochloride]             7.39
1  Oc1ccc(-c2nc(N3CCOCC3)c3ncc(Cl)cc3n2)cc1             5.82
2  N#CCc1cnc2c(N3CCOCC3)nc(-c3cccc(O)c3)nc2c1             6.47
3  OCc1cccc(-c2nc(N3CCOCC3)c3ncc(Cl)cc3n2)c1             7.80
4  Oc1cccc(-c2nc(N3CCOCC3)c3ncc(Cl)cc3n2)c1             8.00
5  Oc1cccc(-c2nc(N3CCOCC3)c3ncc(CNC4CCCCC4)cc3n2)c1 [Compound 28, hydrochloride]             6.67
6  O=Cc1cnc2c(N3CCOCC3)nc(-c3cccc(O)c3)nc2c1             8.00
7  [N-]=[N+]=NCc1cnc2c(N3CCOCC3)nc(-c3cccc(O)c3)nc2c1             7.66
8  Oc1cccc(-c2nc(N3CCOCC3)c3ncc(CNC4CC4)cc3n2)c1             7.96

====

Target: PI3Kδ (Homo sapiens)
Assay: PI3Kδ kinase activity, Adapta TR-FRET ADP detection
Conditions: purified p110δ/p85α heterodimer; read-out: Kinases IC50 PI3Kδ
Experimental: The activity of the PI3Kα kinase was evaluated by using a purified heterodimer (reference: PV4788 from Invitrogen) consisting of the α catalytic p110 subunit (PIK3CA) and the α regulation p85 subunit (PIK3R1). The assay of the kinase with the kit Adapta™ (reference: PV5099 from Invitrogen) is an enzymatic test based on the detection of ADP, produced during the reaction, by the fluorescence technique TR-FRET. […]
pIC50: −log10 of the molar value.
readout: pIC50

>>> print(df.to_string())
                                   compound  readout  reported_result
0  OCC(O)c1cnc2c(N3CCOCC3)nc(-c3cccc(O)c3)nc2c1 (stereo not shown)    pIC50             7.39
1  OCc1cnc2c(N3CCOCC3)nc(-c3cccc(O)c3)nc2c1    pIC50             6.90
2  O=C(O)c1cnc2c(N3CCOCC3)nc(-c3cccc(O)c3)nc2c1    pIC50             7.20
3  C=Cc1cnc2c(N3CCOCC3)nc(-c3ccc(O)cc3)nc2c1    pIC50             5.68

====

# pIC50 listing for each entry below
target: mTOR (Homo sapiens, UniProt P42345); test: mTOR kinase activity, LANCE Ultra TR-FRET; conditions: truncated mTOR protein, triplicate; read-out: Kinases IC50 mTOR
Sequence (P42345 1360-2549): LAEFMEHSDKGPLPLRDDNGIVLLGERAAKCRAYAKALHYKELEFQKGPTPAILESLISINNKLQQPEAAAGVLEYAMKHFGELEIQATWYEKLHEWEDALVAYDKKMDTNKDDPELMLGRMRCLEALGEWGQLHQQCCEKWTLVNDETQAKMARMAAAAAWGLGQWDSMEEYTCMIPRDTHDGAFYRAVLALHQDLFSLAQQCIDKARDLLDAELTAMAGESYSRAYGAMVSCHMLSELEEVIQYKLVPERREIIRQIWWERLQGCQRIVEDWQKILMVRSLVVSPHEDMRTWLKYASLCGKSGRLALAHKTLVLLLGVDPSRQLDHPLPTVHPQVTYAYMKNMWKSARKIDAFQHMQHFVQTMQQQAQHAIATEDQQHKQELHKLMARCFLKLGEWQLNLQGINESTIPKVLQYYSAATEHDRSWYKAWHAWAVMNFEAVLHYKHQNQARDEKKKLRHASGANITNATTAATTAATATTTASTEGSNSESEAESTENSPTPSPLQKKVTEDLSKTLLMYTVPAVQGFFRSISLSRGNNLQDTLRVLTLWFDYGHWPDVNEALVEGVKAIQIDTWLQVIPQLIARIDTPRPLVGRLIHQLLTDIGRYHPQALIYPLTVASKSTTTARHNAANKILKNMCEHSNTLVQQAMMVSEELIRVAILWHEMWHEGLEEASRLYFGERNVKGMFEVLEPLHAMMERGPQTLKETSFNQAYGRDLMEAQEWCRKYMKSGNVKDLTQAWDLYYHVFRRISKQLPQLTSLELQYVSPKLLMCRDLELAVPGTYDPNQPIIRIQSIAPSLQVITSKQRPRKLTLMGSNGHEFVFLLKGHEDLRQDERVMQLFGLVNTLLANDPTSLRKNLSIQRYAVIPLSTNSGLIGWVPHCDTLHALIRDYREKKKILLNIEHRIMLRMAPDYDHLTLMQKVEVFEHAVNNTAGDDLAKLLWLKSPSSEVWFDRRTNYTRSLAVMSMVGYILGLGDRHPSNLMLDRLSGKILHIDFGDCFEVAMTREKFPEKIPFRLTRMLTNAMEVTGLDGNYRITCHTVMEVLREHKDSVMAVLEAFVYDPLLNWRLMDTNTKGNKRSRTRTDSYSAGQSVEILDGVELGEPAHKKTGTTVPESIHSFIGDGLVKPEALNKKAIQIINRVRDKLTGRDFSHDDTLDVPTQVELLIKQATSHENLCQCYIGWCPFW
pIC50: −log10 of the molar value.
readout: pIC50

>>> print(df.to_string())
                           substance_smiles  result_modifier  reported_result
0  Oc1cccc(-c2nc(N3CCOCC3)nc3cc(Cl)cnc23)c1                =             5.28
1  OCc1cccc(-c2nc(N3CCOCC3)c3ncc(Cl)cc3n2)c1                <             4.30
2  O=C(O)c1cnc2c(N3CCOCC3)nc(-c3cccc(O)c3)nc2c1                =             6.87
3  Oc1cccc(-c2nc(N3CCOCC3)c3ncc(Cl)cc3n2)c1                =             6.74

====

Listing: melting point of selected compounds
readout: melting point (°C)

>>> print(df.to_string())
                           substance_smiles  result_modifier  reported_result
0  COc1ccc(-c2nc(N3CCOCC3)c3ncc(Cl)cc3n2)cc1                =              176
1  OCc1cccc(-c2nc(N3CCOCC3)c3ncc(Cl)cc3n2)c1                =              157
2    Oc1ccccc1-c1nc(N2CCOCC2)c2ncc(Cl)cc2n1                =              212
3  C=Cc1cnc2c(N3CCOCC3)nc(-c3ccc(O)cc3)nc2c1                >              260
4  O=[N+]([O-])c1ccc(-c2nc(N3CCOCC3)c3ncc(Cl)cc3n2)cc1                =              200
5  O=C(Nc1ccc(CO)cc1)Nc1ccc(-c2nc(N3CCOCC3)c3ncc(CN4CCOCC4)cc3n2)cc1                >              260

====

Molecular target: mTOR (Homo sapiens)
Assay: mTOR kinase activity, LANCE Ultra TR-FRET
Conditions: truncated mTOR protein, triplicate; read-out: Kinases IC50 mTOR
Description: The activity of the mTOR kinase was evaluated by using a purified truncated protein of the amino acids 1-1359 (reference: PV4753 from Invitrogen). The assay of the activity of the enzyme was carried out with the kit LANCE® Ultra which is an enzymatic test based on the detection of a phosphorylated peptide produced during the reaction, by using the fluorescence technique TR-FRET. […]
pIC50: −log10 of the molar value. Counter-ions that a name gives are not always drawn.
readout: pIC50

>>> print(df.to_string())
                                   molecule  result_modifier  reported_result
0  Oc1cccc(-c2nc(N3CCOCC3)c3ncc(CNC4CCCCC4)cc3n2)c1 [Compound 28, hydrochloride]                =             5.92
1  OCc1cnc2c(N3CCOCC3)nc(-c3cccc(O)c3)nc2c1 [Compound 34]                =             6.46
2  O=Cc1cnc2c(N3CCOCC3)nc(-c3cccc(O)c3)nc2c1 [Compound 20]                =             7.15
3  [N-]=[N+]=NCc1cnc2c(N3CCOCC3)nc(-c3cccc(O)c3)nc2c1 [Compound 39]                =             7.26
4  COc1ccc(-c2nc(N3CCOCC3)c3ncc(Cl)cc3n2)cc1 [Compound 9]                <             4.30

====

molecular target: UniProtKB P48736; assay: PI3Kγ kinase activity, Adapta TR-FRET ADP detection; conditions: p110γ catalytic subunit; read-out: Kinases IC50 PI3Kγ
Sequence (P48736 whole entry): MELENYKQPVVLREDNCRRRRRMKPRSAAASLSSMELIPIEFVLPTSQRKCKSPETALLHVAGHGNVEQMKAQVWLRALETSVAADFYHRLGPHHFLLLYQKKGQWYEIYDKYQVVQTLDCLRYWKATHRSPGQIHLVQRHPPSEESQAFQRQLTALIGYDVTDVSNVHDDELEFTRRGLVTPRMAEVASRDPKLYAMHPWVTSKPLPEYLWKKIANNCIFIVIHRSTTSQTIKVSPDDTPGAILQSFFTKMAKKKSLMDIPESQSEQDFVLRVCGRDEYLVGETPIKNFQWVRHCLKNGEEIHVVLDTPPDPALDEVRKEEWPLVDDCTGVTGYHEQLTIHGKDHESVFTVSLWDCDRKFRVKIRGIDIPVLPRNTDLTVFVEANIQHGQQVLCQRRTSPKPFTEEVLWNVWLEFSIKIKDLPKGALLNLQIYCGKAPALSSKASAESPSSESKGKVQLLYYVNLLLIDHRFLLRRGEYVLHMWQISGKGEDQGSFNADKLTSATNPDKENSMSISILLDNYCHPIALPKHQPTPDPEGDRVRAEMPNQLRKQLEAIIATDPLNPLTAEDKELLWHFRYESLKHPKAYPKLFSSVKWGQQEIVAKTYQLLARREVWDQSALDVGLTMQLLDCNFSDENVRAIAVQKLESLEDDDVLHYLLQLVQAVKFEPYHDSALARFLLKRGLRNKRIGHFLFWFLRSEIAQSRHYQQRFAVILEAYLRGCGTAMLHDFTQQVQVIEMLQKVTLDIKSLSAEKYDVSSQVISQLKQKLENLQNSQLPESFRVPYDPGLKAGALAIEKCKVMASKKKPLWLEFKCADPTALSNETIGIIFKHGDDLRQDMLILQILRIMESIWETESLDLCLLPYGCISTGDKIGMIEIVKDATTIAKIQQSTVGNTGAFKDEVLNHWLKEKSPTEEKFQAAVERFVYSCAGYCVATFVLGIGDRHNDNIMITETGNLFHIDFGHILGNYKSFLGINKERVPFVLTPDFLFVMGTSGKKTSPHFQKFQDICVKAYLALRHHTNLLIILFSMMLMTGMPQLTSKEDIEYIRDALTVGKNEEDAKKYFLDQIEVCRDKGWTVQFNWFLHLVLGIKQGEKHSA
Structures can show the parent of a compound that is named as a salt.
Could you please classify the records by IC50 using these ranges: group A: < 300 nM; group B: ≥ 300 nM and < 600 nM; group C: ≥ 600 nM

In [3]: df
Out[3]:
                                    compound    label
 0  Oc1cccc(-c2nc(N3CCOCC3)c3ncc(CNC4CC4)cc3n2)c1  group B
 1  N#CCc1cnc2c(N3CCOCC3)nc(-c3cccc(O)c3)nc2c1  group A
 2  Oc1cccc(-c2nc(N3CCOCC3)c3ncc(CNC4CCCCC4)cc3n2)c1 [Compound 28, hydrochloride]  group C
 3  Oc1ccc(-c2nc(N3CCOCC3)c3ncc(Cl)cc3n2)cc1  group C
 4  Oc1cccc(-c2nc(N3CCOCC3)c3ncc(CN4CCOCC4)cc3n2)c1 [Compound 29, hydrochloride]  group C
 5  C=Cc1cnc2c(N3CCOCC3)nc(-c3cccc(O)c3)nc2c1  group A
 6  Oc1cccc(-c2nc(N3CCOCC3)nc3cc(Cl)cnc23)c1  group C
 7  C=Cc1cnc2c(N3CCOCC3)nc(-c3ccc(O)cc3)nc2c1  group C
 8  O=C(O)c1cnc2c(N3CCOCC3)nc(-c3cccc(O)c3)nc2c1  group B
 9  OCc1cnc2c(N3CCOCC3)nc(-c3cccc(O)c3)nc2c1  group A
10  OCc1cccc(-c2nc(N3CCOCC3)c3ncc(Cl)cc3n2)c1  group B
11  [N-]=[N+]=NCc1cnc2c(N3CCOCC3)nc(-c3cccc(O)c3)nc2c1  group A
12  O=CCCc1cnc2c(N3CCOCC3)nc(-c3cccc(O)c3)nc2c1  group B
13  O=Cc1cnc2c(N3CCOCC3)nc(-c3cccc(O)c3)nc2c1  group C
14  Oc1cccc(-c2nc(N3CCOCC3)c3ncc(Cl)cc3n2)c1  group A
15  COc1ccc(-c2nc(N3CCOCC3)c3ncc(Cl)cc3n2)cc1  group C
16  OCC(O)c1cnc2c(N3CCOCC3)nc(-c3cccc(O)c3)nc2c1 (stereo not drawn)  group B
17  CN1CCN(Cc2cnc3c(N4CCOCC4)nc(-c4cccc(O)c4)nc3c2)CC1 [Compound 30, hydrochloride]  group A
